# Tested on: TNF-α production
# procedure.details: Inhibition of TNF-α production measured by competitive EIA in LPS stimulated THP-1 cells
# Assay type: cell-based, human
# measurement.parameters: Homo sapiens, THP-1, 3 h, EIA, 3 hr incubation, means of two experiments, standard deviation in parentheses
Exercise: for every item that follows, state its recorded IC50.
Answer with the value and then the unit.

Task: What IC50 value was documented for this molecule, NC1=NC(=O)/C(=C2\CCNC(=O)c3[nH]c(Br)cc32)N1 [Hymenialdisine 1, hymenialdisine, reference compound] ?
Output: 1.4 µM

Task: Would you mind telling me what IC50 value was observed for NC1=N/C(=C2/CCNC(=O)c3[nH]c4ccccc4c32)C(=O)N1 ?
Output: 8.2 µM
